test system: Nucleic Acid; experiment: Effect on cellular protein DNA complex formation(%) at 10 uM in comparison with etoposide; type: functional
Quick reference: Complex formation of the listed items.
reported metric: Complex formation (%)

- smiles representation: "COc1cc([C@@H]2c3cc4c(cc3[C@@H](Nc3ccc5c(c3)OCCO5)[C@H]3COC(=O)[C@H]23)OCO4)c(Cl)c(OC)c1O"
  reported metric: "Complex formation"
  number: 0
- smiles representation: "COc1cc([C@@H]2c3cc4c(cc3[C@@H](Nc3ccc([N+](=O)[O-])cc3)[C@H]3COC(=O)[C@H]23)OCO4)c(Cl)c(OC)c1O"
  reported metric: "Complex formation"
  number: 0
- smiles representation: "COc1cc([C@@H]2c3cc4c(cc3[C@@H](Nc3cccc(O)c3)[C@H]3COC(=O)[C@H]23)OCO4)cc(OC)c1O"
  reported metric: "Complex formation"
  number: 290
- smiles representation: "COc1cc([C@@H]2c3cc4c(cc3[C@@H](Nc3ccc5c(c3)OCO5)[C@H]3COC(=O)[C@H]23)OCO4)c(Cl)c(OC)c1O"
  reported metric: "Complex formation"
  number: 0
